target entity: Neu5Ac(a2-6)Gal(b1-4)GlcNAc(b1-3)Gal(b1-4)GlcNAc(b1-3)Gal(b1-4)GlcNAc(b1-2)Man(a1-3)[Neu5Ac(a2-6)Gal(b1-4)GlcNAc(b1-3)Gal(b1-4)GlcNAc(b1-3)Gal(b1-4)GlcNAc(b1-2)Man(a1-6)]GalNAc
test name: glycan array binding signal (z-score within array); higher = stronger binding
condition details: glycan notation: IUPAC condensed, linker removed
Shown is part of a subset that was picked to be rich in the strongest signals.
Collected glycan array binding signal (z-score) values appear next to each entry.

binder	glycan array binding signal (z-score)
SP15308B-bot-339-22-339 (Bacteroides ovatus) (protein) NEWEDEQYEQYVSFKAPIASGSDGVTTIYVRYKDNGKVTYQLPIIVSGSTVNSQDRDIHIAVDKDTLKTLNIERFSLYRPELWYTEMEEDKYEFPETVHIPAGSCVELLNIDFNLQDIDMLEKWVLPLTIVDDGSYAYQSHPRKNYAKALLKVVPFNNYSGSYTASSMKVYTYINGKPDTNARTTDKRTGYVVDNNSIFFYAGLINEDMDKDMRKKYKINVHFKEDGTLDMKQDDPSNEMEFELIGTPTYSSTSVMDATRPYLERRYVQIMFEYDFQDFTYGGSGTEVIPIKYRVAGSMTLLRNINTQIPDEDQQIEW	0.664
GNA (Galanthus nivalis), P30617 (protein) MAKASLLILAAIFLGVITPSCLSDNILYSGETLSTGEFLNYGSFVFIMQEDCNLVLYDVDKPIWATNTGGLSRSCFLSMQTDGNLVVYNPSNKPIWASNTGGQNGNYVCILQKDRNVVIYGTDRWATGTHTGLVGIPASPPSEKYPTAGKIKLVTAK	-0.029
ACA (Amaranthus caudatus) (protein) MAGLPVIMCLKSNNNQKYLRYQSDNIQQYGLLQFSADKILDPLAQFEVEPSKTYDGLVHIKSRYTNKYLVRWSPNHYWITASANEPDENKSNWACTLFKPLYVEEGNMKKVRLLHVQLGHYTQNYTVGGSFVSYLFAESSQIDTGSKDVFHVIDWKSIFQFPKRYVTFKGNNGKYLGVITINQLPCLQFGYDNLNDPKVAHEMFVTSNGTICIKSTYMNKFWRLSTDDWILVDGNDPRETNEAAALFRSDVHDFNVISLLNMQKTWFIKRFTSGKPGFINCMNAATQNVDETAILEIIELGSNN	3.17
